Biological target: PTP1B (Homo sapiens, UniProt P18031)
Sequence (P18031 1-435): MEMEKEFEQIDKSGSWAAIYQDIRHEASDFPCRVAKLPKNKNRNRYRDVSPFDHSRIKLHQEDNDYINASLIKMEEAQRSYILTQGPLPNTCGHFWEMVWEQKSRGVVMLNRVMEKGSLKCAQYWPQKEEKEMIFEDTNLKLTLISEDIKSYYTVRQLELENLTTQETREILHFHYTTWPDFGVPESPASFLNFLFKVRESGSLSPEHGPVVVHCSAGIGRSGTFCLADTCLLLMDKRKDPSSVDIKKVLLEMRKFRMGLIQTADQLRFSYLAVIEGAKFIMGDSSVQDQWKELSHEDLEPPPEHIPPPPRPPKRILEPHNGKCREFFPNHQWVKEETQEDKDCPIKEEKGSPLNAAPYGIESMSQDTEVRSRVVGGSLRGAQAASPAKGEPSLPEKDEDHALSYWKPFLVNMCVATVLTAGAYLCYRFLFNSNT
Assay: recombinant PTP1B pNPP hydrolysis assay, absorbance at […] nm
Parameter: pIC50
Please express pIC50 as -log10 of the molar concentration.

Q: Entry Oc1cc(O)c2c(c1)O[C@H](c1cc(O)c(O)c(O)c1)[C@H](O)C2 [EGC, epigallocatechin] has what pIC50?
Ans: 3.98
